Hello, the source for this data is paper PMC5691035, in case you need it.

study system: Pfs25, monomeric, produced in Nicotiana benthamiana (Plasmodium falciparum (NF54; identical …, UniProt P13829)
Sequence (P13829 22-193): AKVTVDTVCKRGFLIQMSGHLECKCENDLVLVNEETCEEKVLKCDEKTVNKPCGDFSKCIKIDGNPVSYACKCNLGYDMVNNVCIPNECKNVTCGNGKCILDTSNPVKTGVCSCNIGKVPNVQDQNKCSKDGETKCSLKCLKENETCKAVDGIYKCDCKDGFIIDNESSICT
protocol description: BLI
particulars: both partners purified
Recorded koff values for a group of binders are listed next.

binder: 1202 Fab (Fab, V domains shown, source: HEK293F, transiently expressed, purified (LambdaSelect or KappaSelect, MonoS, Superdex 200)) VH: QVQLVESGGDLVKPGGSLRLSCAASGFTFSDHYMNWIRQAPGKGLEWVSYISSSGSTIYYSDSVKGRFTISRDNAKYLLSLQMNSLRAEDTAVYFCARDPMVRGFHDAFDIWGQGTMVTVSS VL: SYELTQPPSVSVSPGQTASITCSGDKLGDKYASWYQQKPGQSPVLVIFQDNKRPSGIPERFSGSNSGNTATLTISETQAMDEADYYCQAWDISTAVFGTGTNVT
koff (s⁻¹): 0.016
//
binder: 1262 Fab (Fab, V domains shown, source: HEK293F, transiently expressed, purified (KappaSelect or LambdaSelect, MonoS, Superdex 200)) VH: QVQLQESGPGLVKPSGTLSLTCAVSGGSISSSHWWSWVRQPPGKGLEWVGEISLSGSTHYGPSLKSRVSISLDKSMNHFSLRLSSVTAADTAVYYCARESRFYGAYFDYWGQGTLVTVSS VL: DIQLTQSPSFLSASVGDRVTITCWASQGINSYLAWYQQKPGKTPKLLIYAASTLQSGVPSRFSGSGSGTEFTLTISSLQPEDFATYYCQQLNSYPCSFGQGTTLEIK
koff (s⁻¹): 0.0011
